Data origin: patent US10351575B2

We begin with a simple list: items and their reported Avg. POC.
ASSAYED SYSTEM: mTOR (Homo sapiens (Human))
ASSAY: KinaseProfiler off-target kinase profiling
Type: biochemical
MEASUREMENT CONTEXT: 10 μM, ATP near Km
PROPERTY: Avg. POC

molecule="Cc1c(-c2ccc(=O)n(C)c2)nn(-c2ccccc2)c1NC(=O)NC1CN(CC(F)(F)F)Cc2ccccc21 (stereo not shown) [Example 26]" result="102.5 POC"
molecule="COCc1ccc2c(c1)C(NC(=O)Nc1c(C)c(-c3cnn(C)c3)nn1-c1ccccc1)COC2 (stereo not shown) [Example 32]" result="94.5 POC"
molecule="Cc1c(-c2cnn(C)c2)nn(-c2ccccc2)c1NC(=O)N[C@H]1CCCc2ccccc21 [Example 2]" result="116 POC"
molecule="Cc1c(-c2cnn(C)c2)nn(-c2ccccc2)c1NC(=O)NC1CCOc2cc(F)ccc21 (stereo not shown) [Example 12]" result="104.5 POC"
